- Tested on: ACHN renal
- MEASUREMENT DESCRIPTION: NCI tumour cell line growth inhibition, 48 h
Measured TGI, listed per entry for reference.

- MOLECULE: "OC(CCN1CCN(CCOC(c2ccc(F)cc2)c2ccc(F)cc2)CC1)c1ccccc1 (stereo not drawn)"
  TGI: "25.8 µM"
- MOLECULE: "COc1cccc(NC(=O)c2c(SC)n[nH]c2N)c1"
  TGI: "> 100 µM"
- MOLECULE: "Cc1occc1C(=S)Nc1ccc(Cl)c(C(=O)OCC2CC2)c1"
  TGI: "> 100 µM"

###

- System: UACC-62 melanoma
- MEASUREMENT DESCRIPTION: NCI tumour cell line growth inhibition, 48 h; in the data active means GI50 below about 0.43 µM; inactive means the rest
Outcome codes: t = active, f = inactive

- COMPOUND: "O=C(Oc1ccccc1Cl)c1cccnc1Nc1ccnc(C(F)(F)F)c1"
  CATEGORY LABEL: "f"
- COMPOUND: "CO/N=C(\\COc1ccc2c(=O)cc(-c3ccccc3)oc2c1)c1ccc(OC)cc1"
  CATEGORY LABEL: "f"
- COMPOUND: "CN([N-]C(=O)CC(=O)[N-]N(C)C(=S)c1ccccc1)C(=S)c1ccccc1.[Cu+2]"
  CATEGORY LABEL: "t"
- COMPOUND: "CCCCCn1ncc(-c2c(O)c(O)cc3c(O)c(-c4c(C)cc5c(-c6cnn(CCCCC)n6)c(O)c(O)cc5c4O)c(C)cc23)n1"
  CATEGORY LABEL: "t"
- COMPOUND: "CCCCCCCCOC(=O)c1cc(O)c(O)c(O)c1"
  CATEGORY LABEL: "f"
- COMPOUND: "CC(=O)OC1C(O)COC(Oc2c(C)c3c4c(c2O)[C@@H](C)CC[C@@H]4[C@@H](C)C[C@H]3C=C(C)C)C1O (some centres undefined)"
  CATEGORY LABEL: "f"
- COMPOUND: "CC(=O)c1ccc(NCn2nc(-c3ccccc3O)oc2=S)cc1"
  CATEGORY LABEL: "f"
- COMPOUND: "CCN(CCc1ccc(F)cc1)c1ccc(CO)c(Cl)c1"
  CATEGORY LABEL: "f"
- COMPOUND: "Cc1ccc(NCCN(C)CC(C)O)c2c(=O)c3ccc(Cl)cc3sc12 (centres undefined)"
  CATEGORY LABEL: "f"
- COMPOUND: "COc1ccc(-n2nc(C)c3c(Nc4ccc(NC(=O)Nc5cc(C(F)(F)F)ccc5F)cc4)ncnc32)cc1"
  CATEGORY LABEL: "f"
- COMPOUND: "O=c1c2ccccc2c(C=NCCNCCO)c2oc3ccccc3n12"
  CATEGORY LABEL: "f"
- COMPOUND: "Cn1c(-c2c(N)n(Cc3ccc(Cl)cc3)c3nc(C#N)c(C#N)nc23)nc2ccccc21"
  CATEGORY LABEL: "f"
- COMPOUND: "C=C(C)[C@@H]1CC[C@]2(c3ncc(C)o3)CC[C@]3(C)[C@H](CC[C@@H]4[C@@](C)(CCC#N)[C@H](C(=C)C)CC[C@]43C)[C@@H]12"
  CATEGORY LABEL: "f"
- COMPOUND: "CN1CCN(c2ccc3nc(-c4ccc5nc(-c6ccc(C(F)(F)F)cc6)[nH]c5c4)[nH]c3c2)CC1"
  CATEGORY LABEL: "f"
- COMPOUND: "CCCN(CCC)c1ccc(C=O)c(OC)c1"
  CATEGORY LABEL: "f"
- COMPOUND: "c1ccc(CN2CCC3(CC2)ONC2=NCCN23)cc1"
  CATEGORY LABEL: "f"
- COMPOUND: "CC(=O)[CH-]C(=O)c1ccccc1.CC(=O)[CH-]C(=O)c1ccccc1.CC(C)CCCC(C)[C@H]1CCC2[C@@H]3CCC4C[C@@H]([O-])CC[C@]4(C)C3CC[C@@]21C.CC(C)CCCC(C)[C@H]1CCC2[C@@H]3CCC4C[C@@H]([O-])CC[C@]4(C)C3CC[C@@]21C.Cl.[Ti+4] (some centres undefined)"
  CATEGORY LABEL: "f"
- COMPOUND: "COc1cccc2c1C(=O)c1c(O)c3c(c(O)c1C2=O)C[C@@](O)(C(=O)COC(=O)c1cccnc1)C[C@@H]3OC1CC(N)C(O)C(C)O1 (some centres undefined)"
  CATEGORY LABEL: "t"
- COMPOUND: "CNC1=C(Br)C(=O)C2=C(C1=O)C1C3=C(C(=O)C=CC3=O)C2c2ccccc21 (centres undefined)"
  CATEGORY LABEL: "f"
